FYI, the data here is from paper PMC8113725.

Measured kon values are reported for all entries that follow.
target.or.system: C. elegans iPGM (Caenorhabditis elegans, UniProt G5EFZ1)
assay.explanation: SPR binding kinetics and saturation binding, biotinylated iPGM on Biotin CAPture chip (Biacore S200)
Bridge positions count the residues as written; N and C are the ends. Square brackets hold non-standard residues; d marks the D form. Peptide text beside a SMILES is read from it. Nva = CCC[C@H](N)C(=O)O

[
  {
    "molecule": "CC(C)C[C@H](NC(=O)[C@H](Cc1ccc(O)cc1)NC(=O)[C@@H]1CSCC(=O)N[C@H](Cc2ccc(O)cc2)C(=O)N[C@@H](CC(=O)O)C(=O)N[C@@H](Cc2ccc(O)cc2)C(=O)N2CCC[C@H]2C(=O)NCC(=O)N[C@@H](CC(=O)O)C(=O)N[C@@H](Cc2ccc(O)cc2)C(=O)N1)C(=O)N[C@@H](Cc1ccc(O)cc1)C(=O)NCC(=O)NCC(=O)N[C@@H](CS)C(N)=O [Ce-2 T13G]",
    "kon": "1.32e+06 M⁻¹ s⁻¹"
  },
  {
    "molecule": "CC(C)C[C@H](NC(=O)[C@H](Cc1ccc(O)cc1)NC(=O)[C@@H]1CSCC(=O)N[C@H](Cc2ccc(O)cc2)C(=O)N[C@@H](CC(=O)O)C(=O)N[C@@H](Cc2ccc(O)cc2)C(=O)N[C@@H](C(C)C)C(=O)NCC(=O)N[C@@H](CC(=O)O)C(=O)N[C@@H](Cc2ccc(O)cc2)C(=O)N1)C(=O)N[C@@H](Cc1ccc(O)cc1)C(=O)NCC(=O)N[C@H](C(=O)N[C@@H](CS)C(N)=O)[C@@H](C)O [Ce-2 P4V]",
    "kon": "173000 M⁻¹ s⁻¹"
  },
  {
    "molecule": "CCC[C@@H]1NC(=O)[C@@H](Cc2ccc(O)cc2)NC(=O)CSC[C@@H](C(=O)N[C@@H](Cc2ccc(O)cc2)C(=O)N[C@@H](CC(C)C)C(=O)N[C@@H](Cc2ccc(O)cc2)C(=O)NCC(=O)N[C@H](C(=O)N[C@@H](CS)C(N)=O)[C@@H](C)O)NC(=O)[C@H](Cc2ccc(O)cc2)NC(=O)[C@H](CC(=O)O)NC(=O)CNC(=O)[C@@H]2CCCN2C(=O)[C@H](Cc2ccc(O)cc2)NC1=O [Ce-2 D2Nva] ({CH2CO}-[dY][Nva]YPGDYCYLYGTC-NH2; thioether N-8)",
    "kon": "1.94e+06 M⁻¹ s⁻¹"
  }
]

---

target.or.system: D. immitis iPGM (Dirofilaria immitis)
assay.explanation: biochemical
condition.description: IC50 (M)
Bridge positions count the residues as written; N and C are the ends. Square brackets hold non-standard residues; d marks the D form. Peptide text beside a SMILES is read from it.

[
  {
    "compound": "CC(C)C[C@H](NC(=O)[C@H](Cc1ccccc1)NC(=O)[C@@H]1CSCC(=O)N[C@H](Cc2ccc(O)cc2)C(=O)N[C@@H](CC(=O)O)C(=O)N[C@@H](Cc2ccc(O)cc2)C(=O)N2CCC[C@H]2C(=O)NCC(=O)N[C@@H](CC(=O)O)C(=O)N[C@@H](Cc2ccccc2)C(=O)N1)C(=O)N[C@@H](Cc1ccc(O)cc1)C(=O)NCC(=O)N[C@H](C(=O)N[C@@H](CS)C(N)=O)[C@@H](C)O [Ce-2 Y7F, Y9F] ({CH2CO}-[dY]DYPGDFCFLYGTC-NH2; thioether N-8)",
    "target.or.system": "D. immitis iPGM (Dirofilaria immitis)",
    "IC50": "2.03e-08 M"
  }
]
